experimentalDetails: Terminal half life in CD1 mouse at 0.4 mg/kg, iv administered as cassette dose measured upto 24 hrs by LC-MS/MS analysis
Format: ADME, organism-based
assaySetup: in vivo, read-out: beta t1/2 (converted)
Classification by half-life | ranges: LOW (below 100 min), MID (100 min to below 200 min), HIGH (200 min or more)

- smilesNotation: "Cc1cn(-c2cc(NC(=O)c3ccc(C)c(Oc4ccccc4)c3)cc(N3CCN(C)CC3)c2)cn1"
  qualitativeLabel: "HIGH"
- smilesNotation: "Cc1cn(-c2cc(CN3CCC[C@H](N)C3)cc(NC(=O)c3ccc(C)c(Nc4nccc(-c5ccc(F)cc5)n4)c3)c2)cn1"
  qualitativeLabel: "HIGH"
- smilesNotation: "Cc1cn(-c2cc(CCS(N)(=O)=O)cc(NC(=O)c3ccc(C)c(Nc4nccc(-c5ccccc5)n4)c3)c2)cn1"
  qualitativeLabel: "LOW"
- smilesNotation: "Cc1cn(-c2cc(CN3CCC[C@H](N)C3)cc(NC(=O)c3ccc(C)c(Oc4ccccc4)c3)c2)cn1"
  qualitativeLabel: "HIGH"
- smilesNotation: "Cc1cn(-c2cc(NC(=O)c3ccc(C)c(C(=O)c4cccc(C#N)c4)c3)cc(N3CCN(C)CC3)c2)cn1"
  qualitativeLabel: "LOW"

Qu. Which class does `Cc1cn(-c2cc(NC(=O)c3ccc(C)c(Oc4cccc5ccncc45)c3)cc(N3CCN(C)CC3)c2)cn1` fall in?
Ans. MID

Qu. Try this compound too: `Cc1cn(-c2cc(NC(=O)c3ccc(C)c(Oc4ccccc4)c3)cc(C(F)(F)F)c2)cn1`
Ans. MID

Qu. Another compound: `Cc1cn(-c2cc(NC(=O)c3ccc(C)c(Nc4nccc(-c5ccccc5)n4)c3)cc(N3CCN(C)CC3)c2)cn1`
Ans. MID

---

targetOrSystem: Platelet-derived growth factor receptor beta (Homo sapiens)
Sequence (P09619 whole entry, the tested form may be a part): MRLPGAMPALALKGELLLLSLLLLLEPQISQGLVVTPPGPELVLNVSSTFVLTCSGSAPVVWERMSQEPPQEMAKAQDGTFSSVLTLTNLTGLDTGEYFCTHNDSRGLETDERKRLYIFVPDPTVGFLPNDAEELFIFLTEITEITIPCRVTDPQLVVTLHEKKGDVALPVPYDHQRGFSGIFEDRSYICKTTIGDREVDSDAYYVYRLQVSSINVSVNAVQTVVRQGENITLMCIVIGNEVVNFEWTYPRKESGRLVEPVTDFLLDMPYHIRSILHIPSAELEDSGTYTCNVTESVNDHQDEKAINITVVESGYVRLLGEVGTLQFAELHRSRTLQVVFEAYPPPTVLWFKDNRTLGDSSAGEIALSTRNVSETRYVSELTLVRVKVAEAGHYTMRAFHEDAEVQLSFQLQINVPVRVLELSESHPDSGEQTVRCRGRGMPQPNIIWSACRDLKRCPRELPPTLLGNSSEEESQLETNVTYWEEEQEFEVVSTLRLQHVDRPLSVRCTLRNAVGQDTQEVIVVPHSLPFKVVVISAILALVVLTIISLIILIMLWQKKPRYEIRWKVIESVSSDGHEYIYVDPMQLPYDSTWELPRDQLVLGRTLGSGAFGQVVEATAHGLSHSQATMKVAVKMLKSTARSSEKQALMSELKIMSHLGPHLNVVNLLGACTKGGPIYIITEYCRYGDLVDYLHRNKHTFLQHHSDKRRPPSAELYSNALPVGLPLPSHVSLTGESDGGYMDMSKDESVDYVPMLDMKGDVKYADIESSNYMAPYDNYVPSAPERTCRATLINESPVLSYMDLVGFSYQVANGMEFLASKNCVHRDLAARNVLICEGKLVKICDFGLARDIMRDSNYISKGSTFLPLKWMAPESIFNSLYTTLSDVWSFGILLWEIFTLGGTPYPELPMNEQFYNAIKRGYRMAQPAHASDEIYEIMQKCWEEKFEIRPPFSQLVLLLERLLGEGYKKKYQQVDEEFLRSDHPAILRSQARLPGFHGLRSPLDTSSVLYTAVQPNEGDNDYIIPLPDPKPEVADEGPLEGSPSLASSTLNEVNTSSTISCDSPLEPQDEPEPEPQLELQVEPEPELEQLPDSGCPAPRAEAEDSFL
experimentalDetails: Inhibition of recombinant human N-terminal GST-tagged PDGFRbeta cytoplasmic domain (557 to 1106 residues) expressed in baculovirus expression system using FAM-labelled P22 peptide as substrate preincubated for 10 mins followed by substrate addition and measured after 1 hr in presence of ATP by fluorescence assay
Documented IC50 across a set of molecules
Expressed in µM, but write only the number.

# count of solved cases: 3
- smilesNotation: "Cc1cn(-c2cc(NC(=O)c3ccc(C)c(Nc4nccc(-c5ccccc5)n4)c3)cc(N3CCNCC3)c2)cn1"
  unitName: "µM"
  IC50: 1.51
- smilesNotation: "Cc1cn(-c2cc(CN3CCC[C@H](N)C3)cc(NC(=O)c3ccc(C)c(Nc4nccc(-c5ccc(F)cc5)n4)c3)c2)cn1"
  unitName: "µM"
  IC50: 2.04
- smilesNotation: "Cc1cn(-c2cc(NC(=O)c3ccc(C)c(Nc4nccc(-c5ccccc5)n4)c3)cc(C(F)(F)F)c2)cn1"
  unitName: "µM"
  IC50: 2.48

Then this molecule:
Qu. Bench note: what IC50 did `Cc1cn(-c2cc(NC(=O)c3ccc(C)c(Oc4cccc5ccncc45)c3)cc(N3CCN(C)CC3)c2)cn1` show?
Ans. 3.29

---

Quick reference for clearance among some compounds
experimentalDetails: Clearance in CD1 mouse at 0.4 mg/kg, iv administered as cassette dose measured upto 24 hrs by LC-MS/MS analysis
Type: ADME, organism-based
assaySetup: in vivo
Unit mL/min/kg implied. Number only.

As a guide, the following entries are already answered.
- smilesNotation: "Cc1cn(-c2cc(NC(=O)c3ccc(C)c(C(=O)c4cccc(C#N)c4)c3)cc(N3CCN(C)CC3)c2)cn1"
  unitName: "mL/min/kg"
  clearance: 81
- smilesNotation: "Cc1cn(-c2cc(NC(=O)c3ccc(C)c(Oc4ccccc4)c3)cc(N3CCN(C)CC3)c2)cn1"
  unitName: "mL/min/kg"
  clearance: 17.5
- smilesNotation: "Cc1cn(-c2cc(NC(=O)c3ccc(C)c(Oc4cccc5ccncc45)c3)cc(N3CCN(C)CC3)c2)cn1"
  unitName: "mL/min/kg"
  clearance: 50.8
- smilesNotation: "Cc1cn(-c2cc(NC(=O)c3ccc(C)c(Oc4ccccc4)c3)cc(C(F)(F)F)c2)cn1"
  unitName: "mL/min/kg"
  clearance: 12.5
- smilesNotation: "Cc1cn(-c2cc(CN3CCC[C@H](N)C3)cc(NC(=O)c3ccc(C)c(Nc4nccc(-c5ccc(F)cc5)n4)c3)c2)cn1"
  unitName: "mL/min/kg"
  clearance: 23.5

Shift focus to the following entry.
Qu. clearance for `Cc1cn(-c2cc(CCS(N)(=O)=O)cc(NC(=O)c3ccc(C)c(Nc4nccc(-c5ccccc5)n4)c3)c2)cn1` ?
Ans. 110
